molecular target: T1, MMP-26 (human); experiment: cell-based or functional assay
T1 sequence: ASDF
binders and their reported % Inhibition of JEG-3 cell invasion, 25 µg/ml (first test)
// units = %; emit number, no label

binder	quantitative readout
A1-orig (antibody, human IgG4, V domains shown) VH: EVQLLESGGGLVQPGGSLRLSCAASGFTFSYYRMSWVRQAPGKGLEWVSSIGPSGGDTLYADSVKGRFTISRDNSKNTLYLQMNSLRAEDTAVYYCARSFSSGPYYFDYWGQGTLVTVSS VL: QSVLTQPPSASGTPGQRVIISCSGSSSNIGSHYVHWYQQVPGTAPKLLIYRNGQRPSGVPDRFSGFKSGTSASLAISGLRSEDEANYYCATWDDSVLFGGGTTLTVLG	66

Kindly review the next binder as well.
Look up % Inhibition of JEG-3 cell invasion, 25 µg/ml (first test): D08 (antibody, human IgG4, V domains shown) VH: EVQLLESGGGLVQPGGSLRLSCAASGFTFSFYAMWWVRQAPGKGLEWVSRIYSSGGKTWYADSVKGRFTISRDNSKNTLYLQMNSLRAEDTAVYYCARVGMSTYAFDIWGQGTMVTVSS VL: DIQMTQSPSSLSASVGDRVTITCRASQSISDYLNWYQQKPGKAPDLLIYAASSLQSGVPSRFSGSGSGTDFTLTVSSLQPEDFATYFCQQSYSIPLTFGGGTKVEITR
35
